Listed here: compounds with reported log10 GI50 for HCT 116 (colon) cells.
On a log10 scale: recorded GI50, unit µM.

Some compounds with recorded log10 GI50:
COc1ccc(/C(=C\c2ccc(C(=O)NCc3ccc(C(=O)NO)cc3)cc2)C(=O)NC2CC2)cc1 ... 1.43
Nc1ccccc1NC(=O)/C=C/c1ccc(/C=C(/C(=O)NC2CC2)c2cccnc2)cc1 ... 1.81
Cc1ccc(/C(=C\c2ccc(C(=O)NCCCCCC(=O)NO)cc2)C(=O)NC2CC2)cc1 ... 1.28
COc1ccc(/C(=C\c2ccc(/C=C/C(=O)NO)cc2)C(=O)NC(C)C)cc1F ... 0.32
COc1ccc(/C(=C\c2ccc(C(=O)Nc3ccccc3N)cc2)C(=O)Nc2ccccc2)cc1OC ... 1.00
NC(=O)/C(=C/c1ccc(/C=C/C(=O)NO)cc1)c1ccccc1 ... 0.86
O=C(/C=C/c1ccc(/C=C(/C(=O)NCc2ccc(F)cc2)c2ccc(F)cc2)cc1)NO ... 0.11
COc1ccc(/C(=C\c2ccc(/C=C/C(=O)NCCCCCC(=O)NO)cc2)C(=O)NC2CC2)cc1 ... 1.38

Please state recorded log10 GI50 (tested on HCT 116 (colon) cells) of O=C(NC1CC1)/C(=C/c1ccc(C(=O)NCc2ccc(C(=O)NO)cc2)cc1)c1ccc(F)cc1 1.48

Which log10 GI50 is reported with HCT 116 (colon) cells for this entry: Nc1ccccc1NC(=O)c1ccc(/C=C(/C(=O)NC2CC2)c2ccc(F)c(F)c2)cc1 ? -1.00

API: value(readout=log10 GI50, system=HCT 116 (colon) cells) for record Nc1ccccc1NC(=O)/C=C/c1ccc(/C=C(/C(=O)NC2CC2)c2ccc3c(c2)OCO3)cc1 1.64

Request - read-out log10 GI50 | tested on HCT 116 (colon) cells | compound Nc1ccccc1NC(=O)/C=C/c1ccc(/C=C(/C(=O)N2CCOCC2)c2ccccc2F)cc1 1.30
